Data origin, for the record: ChEMBL document CHEMBL4130549

- System: Enterobacteriaceae
- assay_details: Antibacterial activity against NDM-1-producing Enterobacteriaceae isolate N5 after 16 to 20 hrs by broth microdilution method
- Type: functional
Parameter: log10 of MIC. Scope: all listed entries.
Transform log10 | Measure MIC | Unit mg/L

Record excerpt, results attached:
INSERT INTO measurements (compound, value_observed) VALUES
  ('CCCCCCCCN(CCCCCCCC)C(=O)[C@H](N)CO.Cl', 1.20),
  ('CCCCCCCCCCCN(CCCCCCCCCCC)C(=O)[C@@H](N)CCCCN.Cl.Cl', 1.51),
  ('CCCCCCCCCN(CCCCCCCCC)C(=O)[C@@H](N)CCCCN.Cl.Cl', 0.30),
  ('CCCCCCCCCN(CCCCCCCCC)C(=O)[C@@H](N)CCCN=C(N)N.Cl.Cl.Cl', 0.60),
  ('CCCCCCCN(CCCCCCC)C(=O)[C@@H](N)CCCCN.Cl.Cl', 1.20),
  ('CCCCCCCCN(CCCCCCCC)C(=O)[C@H](C)N.Cl', 1.81),
  ('CCCCCCCCCCN(CCCCCCCCCC)C(=O)[C@@H](N)CCCCN.Cl.Cl', 0.60),
  ('CCCCCCCCN(CCCCCCCC)C(=O)[C@@H](N)CCCN=C(N)N.Cl.Cl.Cl', 0.60),
  ('CCCCCCCCN(CCCCCCCC)C(=O)[C@@H](N)CCCCN.Cl.Cl', 0.60),
  ('CCCCCCCCN(CCCCCCCC)C(=O)[C@@H](N)C(C)O.Cl (some centres not stated)', 1.81);

The compound CCCCCCCCN(CCCCCCCC)C(=O)[C@@H](N)CO.Cl , when measured on Enterobacteriaceae, yielded log10 of MIC of 1.20

The compound CCCCCCCCCCN(CCCCCCCCCC)C(=O)[C@@H](N)CCCN=C(N)N.Cl.Cl.Cl , when measured on Enterobacteriaceae, yielded log10 of MIC of 0.60
